For each record, write down the corresponding IC50.
target: BRAF (Homo sapiens (Human), UniProt P15056); experiment: BRAF kinase activity assay (ADP-Glo); type: biochemical; conditions: BRAF; read-out: Kinase IC50 (nM), BRAF biochemical kinase assay
Sequence (P15056 whole entry): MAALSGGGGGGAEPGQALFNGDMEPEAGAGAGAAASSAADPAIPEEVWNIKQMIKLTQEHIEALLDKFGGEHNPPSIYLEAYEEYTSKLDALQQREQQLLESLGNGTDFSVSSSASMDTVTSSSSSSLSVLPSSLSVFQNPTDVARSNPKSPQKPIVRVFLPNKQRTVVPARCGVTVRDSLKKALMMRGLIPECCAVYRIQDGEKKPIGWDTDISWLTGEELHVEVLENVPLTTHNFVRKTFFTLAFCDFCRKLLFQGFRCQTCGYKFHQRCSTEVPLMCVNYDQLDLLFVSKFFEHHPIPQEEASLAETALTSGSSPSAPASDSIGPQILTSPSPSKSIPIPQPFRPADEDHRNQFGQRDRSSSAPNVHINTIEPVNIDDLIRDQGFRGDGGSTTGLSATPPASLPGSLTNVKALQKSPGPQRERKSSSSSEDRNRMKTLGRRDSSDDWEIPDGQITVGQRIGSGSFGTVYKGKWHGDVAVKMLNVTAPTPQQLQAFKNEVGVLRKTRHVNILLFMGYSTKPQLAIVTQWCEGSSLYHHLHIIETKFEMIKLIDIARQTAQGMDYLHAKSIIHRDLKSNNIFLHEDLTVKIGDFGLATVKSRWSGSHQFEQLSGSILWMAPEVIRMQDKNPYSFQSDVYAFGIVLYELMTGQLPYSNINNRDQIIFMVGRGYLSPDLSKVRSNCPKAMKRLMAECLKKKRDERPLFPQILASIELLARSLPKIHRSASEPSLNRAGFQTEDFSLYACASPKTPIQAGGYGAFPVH

Summary for this compound, CCC1(O)CCN(c2nccc3c2ncn3-c2ccc3ncnc(Nc4c(F)ccc(NS(=O)(=O)c5cccc(Cl)c5Cl)c4F)c3n2)CC1 [Example 691] : IC50 is 1 to 10 nM

Summary for this compound, O=S(=O)(Nc1ccc(F)c(Nc2ncnc3ccc(-c4cnc(N5CCOCC5)s4)nc23)c1F)c1cccc(Cl)c1Cl [Example 631] : IC50 is > 10 nM

Summary for this compound, O=S(=O)(Nc1ccc(F)c(Nc2ncnc3ccc(-n4cnc5c(C6CCNCC6)cccc54)nc23)c1F)c1cccc(Cl)c1Cl [Example 662] : IC50 is < 1 nM
